# maps each entry to its MBC
tested on: M. tuberculosis transformed with luxABCDE; experiment: microbe, parasite or virus in culture; assay type: cell-based, Mycobacterium tuberculosis; conditions: Mycobacterium tuberculosis, 168 h; […]; ≥99% reduction in luminescence; read-out: MBC99 Day 7 (Lux Assay) MBC
Observable: MBC

INSERT INTO measurements (compound, data_value) VALUES
  ('CO[C@H]1/C=C/O[C@@]2(C)Oc3c(C)c(O)c4c(O)c(c(/C=N/N5CCN(C)CC5)c(O)c4c3C2=O)NC(=O)/C(C)=C\C=C\[C@H](C)[C@H](O)[C@@H](C)[C@@H](O)[C@@H](C)[C@H](OC(C)=O)[C@@H]1C [RMP, rifampin, reference compound]', '0.463 µM'),
  ('CO[C@H]1/C=C/O[C@@]2(C)Oc3c(C)c(O)c4c(=O)c(c5oc6cc(N7CCC(CC(=O)O)CC7)cc(C)c6nc-5c4c3C2=O)NC(=O)/C(C)=C\C=C\[C@H](C)[C@H](O)[C@@H](C)[C@@H](O)[C@@H](C)[C@H](OC(C)=O)[C@@H]1C [Compound 29g]', '> 0.1 µM'),
  ('CO[C@H]1/C=C/O[C@@]2(C)Oc3c(C)c(O)c4c(=O)c(c5oc6cc(N7CCN(C(=O)C(C)(C)C)CC7)cc(OCc7ccc(CN8CCOCC8)cc7)c6nc-5c4c3C2=O)NC(=O)/C(C)=C\C=C\[C@H](C)[C@H](O)[C@@H](C)[C@@H](O)[C@@H](C)[C@H](OC(C)=O)[C@@H]1C [Compound 17f]', '> 0.1 µM'),
  ('CO[C@H]1/C=C/O[C@@]2(C)Oc3c(C)c(O)c4c(=O)c(c5oc6cc(N7CCN(CC(=O)O)CC7)cc(C)c6nc-5c4c3C2=O)NC(=O)/C(C)=C\C=C\[C@H](C)[C@H](O)[C@@H](C)[C@@H](O)[C@@H](C)[C@H](OC(C)=O)[C@@H]1C [Compound 29h]', '> 0.1 µM');

###

system: non-replicating cultures of M. tuberculosis H37Rv transformed with lux ABCDE; assay: microbe, parasite or virus in culture; type: cell-based, Mycobacterium tuberculosis; settings: Mycobacterium tuberculosis, H37RV; […]; ≥90% reduction in luminescence; read-out: MIC90 LORA
Observable: MIC

INSERT INTO results (compound, observable, data_value) VALUES
  ('CO[C@H]1/C=C/O[C@@]2(C)Oc3c(C)c(O)c4c(=O)c(c5oc6cc(N7CCN(CC(C)C)CC7)cc(OCCCCN7CCOCC7)c6nc-5c4c3C2=O)NC(=O)/C(C)=C\C=C\[C@H](C)[C@H](O)[C@@H](C)[C@@H](O)[C@@H](C)[C@H](OC(C)=O)[C@@H]1C [Compound 6a]', 'MIC', '0.186 µM'),
  ('CO[C@H]1/C=C/O[C@@]2(C)Oc3c(C)c(O)c4c(=O)c(c5oc6cc(N7CCN(CC(C)C)CC7)cc(OCc7cccc(CN8CCN(C(=O)Cn9ccnc9)CC8)c7)c6nc-5c4c3C2=O)NC(=O)/C(C)=C\C=C\[C@H](C)[C@H](O)[C@@H](C)[C@@H](O)[C@@H](C)[C@H](OC(C)=O)[C@@H]1C [Compound 12c]', 'MIC', '< 0.016 µM'),
  ('CO[C@H]1/C=C/O[C@@]2(C)Oc3c(C)c(O)c4c(=O)c(c5oc6cc(N7CCN(CC(=O)O)CC7)cc(OCc7ccc(CN8CCOCC8)cc7)c6nc-5c4c3C2=O)NC(=O)/C(C)=C\C=C\[C@H](C)[C@H](O)[C@@H](C)[C@@H](O)[C@@H](C)[C@H](OC(C)=O)[C@@H]1C [Compound 17i]', 'MIC', '0.247 µM'),
  ('CO[C@H]1/C=C/O[C@@]2(C)Oc3c(C)c(O)c4c(=O)c(c5oc6cccc(OCc7ccc(CN8CCN(C(=O)Cn9ccnc9)CC8)cc7)c6nc-5c4c3C2=O)NC(=O)/C(C)=C\C=C\[C@H](C)[C@H](O)[C@@H](C)[C@@H](O)[C@@H](C)[C@H](OC(C)=O)[C@@H]1C [Compound 16b]', 'MIC', '0.057 µM'),
  ('CO[C@H]1/C=C/O[C@@]2(C)Oc3c(C)c(O)c4c(=O)c(c5oc6cc(N7CCN(CC(C)C)CC7)cc(OCCCCN7CCN(C(=O)Cn8ccnc8)CC7)c6nc-5c4c3C2=O)NC(=O)/C(C)=C\C=C\[C@H](C)[C@H](O)[C@@H](C)[C@@H](O)[C@@H](C)[C@H](OC(C)=O)[C@@H]1C [Compound 6d]', 'MIC', '0.058 µM'),
  ('CO[C@H]1/C=C/O[C@@]2(C)Oc3c(C)c(O)c4c(=O)c(c5oc6cccc(OCc7cccc(CN8CCN(C(=O)Cn9ccnc9)CC8)c7)c6nc-5c4c3C2=O)NC(=O)/C(C)=C\C=C\[C@H](C)[C@H](O)[C@@H](C)[C@@H](O)[C@@H](C)[C@H](OC(C)=O)[C@@H]1C [Compound 11e]', 'MIC', '0.078 µM'),
  ('CO[C@H]1/C=C/O[C@@]2(C)Oc3c(C)c(O)c4c(=O)c(c5oc6cccc(OCCCCN7CCN(C(=O)CN8CCOCC8)CC7)c6nc-5c4c3C2=O)NC(=O)/C(C)=C\C=C\[C@H](C)[C@H](O)[C@@H](C)[C@@H](O)[C@@H](C)[C@H](OC(C)=O)[C@@H]1C [Compound 5e]', 'MIC', '0.047 µM');

###

test system: non-replicating cultures of M. tuberculosis H37Rv transformed with lux ABCDE; experiment: microbe, parasite or virus in culture; assay type: cell-based, Mycobacterium tuberculosis; conditions: ratio of LORA MIC90 to MABA MIC90
# maps each entry to its MIC90 LORA/MABA
Observable: MIC90 LORA/MABA

INSERT INTO measurements (compound, data_value) VALUES
  ('CO[C@H]1/C=C/O[C@@]2(C)Oc3c(C)c(O)c4c(c3C2=O)C2=NC3(CCN(CC(C)C)CC3)NC2=C(NC(=O)/C(C)=C\C=C\[C@H](C)[C@H](O)[C@@H](C)[C@@H](O)[C@@H](C)[C@H](OC(C)=O)[C@@H]1C)C4=O [RFB, rifabutin, reference compound]', 0.94),
  ('CO[C@H]1/C=C/O[C@@]2(C)Oc3c(C)c(O)c4c(=O)c(c5oc6cc(N7CCN(CCCO[C@@H]8COc9nc([N+](=O)[O-])cn9C8)CC7)cc(C)c6nc-5c4c3C2=O)NC(=O)/C(C)=C\C=C\[C@H](C)[C@H](O)[C@@H](C)[C@@H](O)[C@@H](C)[C@H](OC(C)=O)[C@@H]1C [Compound 29d]', 1.4),
  ('CO[C@H]1/C=C/O[C@@]2(C)Oc3c(C)c(O)c4c(=O)c(c5oc6cc(N7CCC(CC(=O)O)CC7)cc(C)c6nc-5c4c3C2=O)NC(=O)/C(C)=C\C=C\[C@H](C)[C@H](O)[C@@H](C)[C@@H](O)[C@@H](C)[C@H](OC(C)=O)[C@@H]1C [Compound 29g]', 5.4);

###

tested on: M. tuberculosis transformed with luxABCDE; test: microbe, parasite or virus in culture; format: cell-based, Mycobacterium tuberculosis; details: Mycobacterium tuberculosis, 168 h; […]; ≥99% reduction in luminescence; read-out: MBC99 Day 7 (Lux Assay) MBC
Observable: MBC (µM)

INSERT INTO results (molecule, observable, data_value) VALUES
  ('CO[C@H]1/C=C/O[C@@]2(C)Oc3c(C)c(O)c4c(=O)c(c5oc6cc(N7CCN(CCCCCCO[C@@H]8COc9nc([N+](=O)[O-])cn9C8)CC7)cc(C)c6nc-5c4c3C2=O)NC(=O)/C(C)=C\C=C\[C@H](C)[C@H](O)[C@@H](C)[C@@H](O)[C@@H](C)[C@H](OC(C)=O)[C@@H]1C [Compound 29e]', 'MBC', 0.05),
  ('CO[C@H]1/C=C/O[C@@]2(C)Oc3c(C)c(O)c4c(=O)c(c5oc6cccc(OCc7ccc(CN8CCN(C(=O)CN9CCOCC9)CC8)cc7)c6nc-5c4c3C2=O)NC(=O)/C(C)=C\C=C\[C@H](C)[C@H](O)[C@@H](C)[C@@H](O)[C@@H](C)[C@H](OC(C)=O)[C@@H]1C [Compound 16c]', 'MBC', 0.061),
  ('CO[C@H]1/C=C/O[C@@]2(C)Oc3c(C)c(O)c4c(=O)c(c5oc6cc(N7CCN(C(=O)C(C)(C)C)CC7)cc(C)c6nc-5c4c3C2=O)NC(=O)/C(C)=C\C=C\[C@H](C)[C@H](O)[C@@H](C)[C@@H](O)[C@@H](C)[C@H](OC(C)=O)[C@@H]1C [Compound 26f]', 'MBC', 0.043),
  ('CO[C@H]1/C=C/O[C@@]2(C)Oc3c(C)c(O)c4c(c3C2=O)C2=NC3(CCN(CC(C)C)CC3)NC2=C(NC(=O)/C(C)=C\C=C\[C@H](C)[C@H](O)[C@@H](C)[C@@H](O)[C@@H](C)[C@H](OC(C)=O)[C@@H]1C)C4=O [RFB, rifabutin, reference compound]', 'MBC', 0.01);
